Every entry's value here was drawn from PubChem BioAssay AID1259333.

# Tested on: cytotoxicity, CellTiter-Glo ATP luminescence
# experimentSummary: loss of cell viability by ATP content – CellTiter-Glo, cytotoxicity control, dose response (AID 1259333)
Calls of active or inactive are those of the source. No rule for the calls is given here; tested in parental BL2 cells.
measure: AC50

molecule	AC50
CC(=O)OC1CC2(O)C3CCC4CC(O)CCC4(C)C3CCC2(C)C1C1=CC(=O)OC1 (centres undefined)	0.559 µM
COc1ccc2c3c([nH]c2c1)[C@H](CO)N(C(=O)Nc1ccc(F)cc1)CC31CCN(C(=O)c2ccccc2F)CC1	8.44 µM
CC12CCC3C(CCC4(O)CC(O)CCC34C=O)C1(O)CCC2C1=CC(=O)OC1 (centres undefined)	3.23 µM
CCCNC(=O)N1[C@H](C#N)[C@@H](c2ccc(-c3cccc(OC)c3)cc2)[C@H]1CO	> 20 µM (inactive)

Return reported AC50 values for all items listed beneath this line.
1. C[C@@H]1CN([C@@H](C)CO)C(=O)c2c(c3ccccc3n2C)-c2ccccc2CO[C@@H]1CN(C)Cc1cccc(C(F)(F)F)c1
2. C[n+]1c(-c2ccccc2)cc2c(=Cc3ccc([N+](=O)[O-])cc3)c3ccccc3n21
3. N#C[C@H]1[C@H](c2ccc(C#Cc3ccccc3F)cc2)[C@@H](CO)N1C(=O)C1CC1
4. Cc1ccc2c(=O)c3ccccc3n(CCCN)c2c1C
5. O=[N+]([O-])c1ccc(N2CCOCC2)c2c1no[n+]2[O-]

["> 20 µM (inactive)", "9.92 µM", "> 20 µM (inactive)", "2.79 µM", "2.85 µM"]
